B1: POU domain, class 6, transcription factor 2, residues 609 to 663; numbered along this chain, P78424 (parent)
chain: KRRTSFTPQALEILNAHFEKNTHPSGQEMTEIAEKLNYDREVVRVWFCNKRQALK

- Variants of: B1
- Measurement Protocol: abundance fitness (aPCA) (normalised: wild type 0, dead -1); higher = more abundant; growth selection in yeast, the domain comes from the species named
- Recorded Conditions: Homo sapiens
abundance fitness below -0.2 gives -1; abundance fitness at or above it gives 1.

1) N21K :: -1
2) F18N :: -1
3) A33Q :: -1
4) E41H :: -1
5) G26S :: 1
6) A33R :: -1
7) A33V :: -1
8) N15F :: -1
9) S5E :: 1
10) F18P :: -1
11) T4F :: -1
12) E28S :: -1
13) N49K :: 1
14) H23I :: 1
15) E41T :: 1
16) H23W :: 1
17) Q27K :: 1
18) V43W :: -1
19) E28K :: 1
20) N49D :: 1
21) L14W :: -1
22) D39R :: 1
23) E12W :: -1
24) T4E :: 1
25) K20M :: 1
26) A53I :: 1
27) A33H :: -1
28) R40I :: 1
29) L54E :: 1
30) Q52K :: 1
31) G26M :: 1
32) K1T :: 1
33) K1A :: 1
34) S25D :: 1
35) K1N :: 1
36) P8D :: 1
37) V43S :: -1
38) F6T :: 1
39) T4K :: 1
40) K1H :: -1
41) F47D :: -1
42) N37E :: 1
43) L36G :: -1
44) V45M :: 1
45) P8S :: 1

Just for reference, the Human Domainome abundance scans (Beltran et al. 2025) is where these values come from.
